Data origin, for the record: PubChem BioAssay AID1626

tested on: M. tuberculosis H37Rv growth inhibition; assay: M. tuberculosis H37Rv growth inhibitors, H37Rv strain (AID 1626)
readout-kind: IC50

>>> result("O=C(OCC#CCSc1nnc(-c2ccc(Br)cc2)o1)c1cccs1")
"< 0.195 µM"
>>> result("Cc1cc(NC(=O)c2sccc2C)n(-c2nc3ccccc3[nH]2)n1")
"< 0.391 µM"
>>> result("CCN(Cc1nc2ccccc2c(=O)[nH]1)Cc1nc2ccsc2c(=O)[nH]1")
"15.8 µM"
>>> result("O=S(=O)(Nc1ccn(-c2ccccc2)n1)c1ccc(Br)cc1")
"30.1 µM"
>>> result("O=C1/C(=C/c2ccccc2[N+](=O)[O-])COc2ccccc21")
"2.9 µM"

Noted for CCCCC(=O)c1ccc(O)cc1 : its IC50 reads 15.2 µM

For this molecule ( O=[N+]([O-])c1cccn2cc(-c3ccc(Br)cc3)nc12 ), measured IC50 is 18.8 µM

For Cc1ccc(S(=O)(=O)NC(=O)Nc2nc(-c3ccc(F)c(F)c3)cs2)cc1 the molecule record lists IC50 as 6.15 µM

Lab note: measured IC50 of Cc1ccc(Sc2ccc(C=C3C(=O)N(C)C(=O)N(C)C3=O)o2)cc1 was 7.56 µM

molecule Cc1cccc(-c2noc(-c3cc4ccccc4oc3=O)n2)c1 , IC50 observed: 1.28 µM

Short answer for Nc1nc(-c2cccc(F)c2)cs1 : IC50 was 11.2 µM

Reported IC50 ( CC(C)(C)C(=O)/C=C/Nc1ccccc1O ) = 2.55 µM

====

system: M. tuberculosis H37Rv growth inhibition; test: M. tuberculosis H37Rv growth inhibitors, H37Rv strain (AID 1626); settings: measured here: IC90 against H37Rv
readout-kind: IC90

>>> result("N=C1SCC(=O)N1c1ncc(Cc2ccc(F)cc2)s1")
"> 100 µM"
>>> result("CCOC(=O)N1CCN=C1SCc1ccc(C(F)(F)F)cc1")
"> 100 µM"
>>> result("COc1ccc(N=Cc2c[nH][nH]c2=O)cc1")
"> 100 µM"

Next compound, IC90 to be filled in.
IC90 for CCCNC(=O)CSc1nnc(-c2ccc(F)cc2)o1 is > 100 µM

====

system: M. tuberculosis H37Rv growth inhibition; assay: M. tuberculosis H37Rv growth inhibitors, H37Rv strain (AID 1626); conditions: measured here: Vero cell cytotoxicity
Parameter CC50: see the listing below.

Entry CCOC(=O)c1sc(NC(=O)CSc2ncn[nH]2)c(C#N)c1C — recorded CC50 = > 40 µM

====

tested on: M. tuberculosis H37Rv growth inhibition; assay: M. tuberculosis H37Rv growth inhibitors, H37Rv strain (AID 1626); conditions: measured here: Vero cell cytotoxicity
Measured CC50 accompanies every entry in the list below.

>>> result("O=C(c1cc2nc(-c3ccc(F)cc3)cc(C(F)(F)F)n2n1)N1CCCCC1c1cccnc1 (stereo not drawn)")
"> 40 µM"
>>> result("COc1ccc(CCNC(=O)NC23CC4CC(CC(C4)C2)C3)cc1")
"> 40 µM"

Briefly, CC50 measured for Cc1cc(NC(=O)c2c(F)cccc2Cl)n(-c2nc3ccccc3[nH]2)n1 : > 40 µM

====

Examples of compounds with documented IC90 follow.
test system: M. tuberculosis H37Rv growth inhibition; test: M. tuberculosis H37Rv growth inhibitors, H37Rv strain (AID 1626); details: measured here: IC90 against H37Rv

Answered examples (5):
>>> result("CCCCOC(=O)c1ccc(NC(=O)CSc2nnnn2C)cc1")
"> 100 µM"
>>> result("COc1ccc(N)c2c1C(=O)c1ccccc1C2=O")
"> 100 µM"
>>> result("CC1Cc2ccccc2N1C(=O)COC(=O)c1ccc(Cl)nc1 (stereo unspecified)")
"> 100 µM"
>>> result("CCOC(=O)C1=C(c2ccccc2)N=c2s/c(=C\\c3ccc(O)cc3)c(=O)n2C1c1cccs1 (stereo unspecified)")
"> 100 µM"
>>> result("CCCCc1c(C)c(C#N)c2[nH]c3ccccc3n2c1=O")
"> 100 µM"

Query CCOC(=O)c1ccc(NC(=O)NS(=O)(=O)c2ccc(C)cc2)cc1 yields IC90 of > 100 µM
